Every entry's value here was drawn from patent US6887896B1.

Target: RARβ (Homo sapiens, UniProt P10826)
Sequence (P10826 183-417 limits assumed): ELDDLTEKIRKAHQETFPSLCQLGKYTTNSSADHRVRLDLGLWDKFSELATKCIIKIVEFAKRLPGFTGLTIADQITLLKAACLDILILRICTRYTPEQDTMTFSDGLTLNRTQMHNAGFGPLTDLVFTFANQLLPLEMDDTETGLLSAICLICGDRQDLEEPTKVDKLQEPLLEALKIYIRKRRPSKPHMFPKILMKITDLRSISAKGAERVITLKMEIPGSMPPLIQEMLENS
Experiment: chimeric receptor transactivation assay, RARβ
Conditions: chimeric receptor transactivation; read-out: RAR Trans. EC50 β
value type: EC50

Worked cases, EC50 given:
compound smiles | EC50
CC/C(=C(F)/C=C/C(C)=C/C(=O)O)c1cc2c(cc1OC)OC(C)(C)C=C2C(C)(C)C | 116 nM
CC(/C=C/C(F)=C(/C)c1cc2c(cc1OCC1CC1)C(C)(C)CC=C2C(C)C)=C\C(=O)O | 203 nM
CCOc1cc2c(cc1\C(C)=C(F)/C=C/C(C)=C/C(=O)O)C(c1ccccc1)=CC(C)(C)O2 | 227 nM
CCCOc1cc2c(cc1\C(C)=C(F)/C=C/C(C)=C/C(=O)O)C(C(C)C)=CCC2(C)C | 80 nM
CCOc1cc2c(cc1\C(=C/C=C/C(C)=C/C(=O)O)CC)C(C(C)(C)C)=CCC2(C)C | 15 nM
CCOc1cc2c(cc1\C(CC)=C(F)/C=C/C(C)=C/C(=O)O)C(C)=CC(C)(C)O2 | 710 nM

Let us examine a further case.
Challenge: Supply EC50 value. Item: CCOc1cc2c(cc1\C(C)=C(F)/C=C/C(C)=C/C(=O)O)C(C(C)(C)C)=CCC2(C)C
Response given: 170 nM

====

Kindly state RXR Trans. efficacy (number in parentheses) β for each of the entries shown.
Molecular target: UniProt:P28704
Sequence (P28704 1-520): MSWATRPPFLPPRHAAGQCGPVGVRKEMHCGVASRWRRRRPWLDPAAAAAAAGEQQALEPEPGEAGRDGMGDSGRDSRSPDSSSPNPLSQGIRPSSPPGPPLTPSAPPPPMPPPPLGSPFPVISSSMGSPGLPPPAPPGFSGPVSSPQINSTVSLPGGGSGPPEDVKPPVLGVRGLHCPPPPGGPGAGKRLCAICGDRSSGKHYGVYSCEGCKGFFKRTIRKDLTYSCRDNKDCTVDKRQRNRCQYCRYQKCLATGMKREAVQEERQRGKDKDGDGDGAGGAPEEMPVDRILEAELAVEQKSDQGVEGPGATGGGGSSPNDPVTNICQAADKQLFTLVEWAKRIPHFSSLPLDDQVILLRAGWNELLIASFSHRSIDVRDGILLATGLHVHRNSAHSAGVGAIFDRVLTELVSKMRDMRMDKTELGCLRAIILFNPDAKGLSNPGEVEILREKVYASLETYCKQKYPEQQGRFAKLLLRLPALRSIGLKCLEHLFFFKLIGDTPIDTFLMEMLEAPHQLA
Assay: holoreceptor transactivation assay, RXRβ
Type: cell-based
Settings: percentage compared to the standard compound
Answers are plain numbers, in %.

molecule | unit abbrev | endpoint result
CC/C(=C(F)/C=C/C(C)=C/C(=O)O)c1cc2c(cc1OC)OC(C)(C)C=C2C(C)(C)C | % | 47

Below are some molecules; for each one, tell me its RXR Trans. efficacy (number in parentheses) β.
1. CCOc1cc2c(cc1\C(C)=C(F)/C=C/C(C)=C/C(=O)O)C(C(C)C)=CCC2(C)C
2. CCOc1c(\C(CC)=C(F)/C=C/C(C)=C/C(=O)O)cc2c(c1Br)C(C)(C)CC=C2C(C)CC (stereo not drawn)
3. CCOc1c(\C(CC)=C(F)/C=C/C(C)=C/C(=O)O)cc2c(c1Cl)C(C)(C)CC=C2C(C)C
4. CCOc1cc2c(cc1\C(CC)=C(F)/C=C/C(C)=C/C(=O)O)C(C(C)(C)C)=CCC2(C)C

Response given:
1: 60; 2: 58; 3: 53; 4: 17

Below are some molecules; for each one, tell me its RXR Trans. efficacy (number in parentheses) β.
1. CCOc1cc2c(cc1\C(C)=C/C=C/C(C)=C/C(=O)O)C(C(C)(C)C)=CCC2(C)C
2. CCOc1cc2c(cc1\C(C)=C(F)/C=C/C(C)=C/C(=O)O)C=CCC2(C)C
3. CC(/C=C/C(F)=C(/C)c1cc2c(c(Cl)c1OC(C)C)OC(C)(C)C=C2C(C)C)=C\C(=O)O
4. CCOc1cc2c(cc1\C(C)=C/C=C/C(C)=C/C(=O)O)C(C(C)C)=CC(C)(C)O2
5. COc1c(\C(C)=C/C=C/C(C)=C/C(=O)O)cc2c(c1Cl)OC(C)(C)C=C2C(C)C
6. CC/C(=C(F)/C=C/C(C)=C/C(=O)O)c1cc2c(cc1OC)OC(C)(C)C=C2C
7. CCOc1c(\C(C)=C(F)/C=C/C(C)=C/C(=O)O)cc2c(c1Br)C(C)(C)CC=C2C(C)(C)C
8. CCOc1cc2c(cc1\C(C)=C(F)/C=C/C(C)=C/C(=O)O)C(C(C)(C)C)=CCC2(C)C

Response given:
1. 72
2. 128
3. 12
4. 6
5. 98
6. 151
7. 25
8. 41

Below are some molecules; for each one, tell me its RXR Trans. efficacy (number in parentheses) β.
1. CCOc1c(\C(C)=C/C=C/C(C)=C/C(=O)O)cc2c(c1Cl)OC(C)(C)C=C2C(C)C
2. CCOc1c(\C(=C(F)/C=C/C(C)=C/C(=O)O)C(C)C)cc2c(c1Br)C(C)(C)CC=C2C(C)C

Response given:
57
30

====

Target: UniProt P28704
Test: holoreceptor transactivation assay, RXRβ
Conditions: holoreceptor transactivation; read-out: RXR Trans. EC50 β
Description: Specifically, one such assay is a chimeric receptor transactivation assay which tests for agonist-like activity in the R RAPE and RAR7 receptor subtypes, and which is based on work published by Feigner, P. L. and Holm, M (1989) Focus, 112 is described in detail in U.S. Pat. No. 5,455,265. The specification of U.S. Pat. No. 5,455,265 is hereby expressly incorporated by reference. […]
Kindly state pEC50 for each of the entries shown.
Numbers only, as −log10 of the molar value.

molecule | pEC50
CCOc1c(\C(C)=C(F)/C=C/C(C)=C/C(=O)O)cc2c(c1Br)C(C)(C)CC=C2C(C)(C)C | 8.15
CCC1=CC(C)(C)Oc2cc(OC)c(\C(C)=C/C=C/C(C)=C/C(=O)O)cc21 | 7.26

Below are some molecules; for each one, tell me its pEC50.
1. COc1c(\C(C)=C/C=C/C(C)=C/C(=O)O)cc2c(c1Cl)OC(C)(C)C=C2C(C)C
2. CC/C(=C(F)/C=C/C(C)=C/C(=O)O)c1cc2c(cc1OC)OC(C)(C)C=C2C(C)(C)C
3. CC/C(=C(F)/C=C/C(C)=C/C(=O)O)c1cc2c(c(Cl)c1OC)OC(C)(C)C=C2C(C)C
4. CCOc1c(\C(C)=C(F)/C=C/C(C)=C/C(=O)O)cc2c(c1Cl)C(C)(C)CC=C2C(C)C
5. COc1cc2c(cc1\C(C)=C/C=C/C(C)=C/C(=O)O)C(C(C)C)=CC(C)(C)O2
6. CCOc1cc2c(cc1\C(=C/C=C/C(C)=C/C(=O)O)CC)C(C(C)(C)C)=CCC2(C)C
7. CCOc1cc2c(cc1\C(C)=C/C=C/C(C)=C/C(=O)O)C(C(C)(C)C)=CCC2(C)C
8. CCOc1c(\C(CC)=C(F)/C=C/C(C)=C/C(=O)O)cc2c(c1Cl)C(C)(C)CC=C2C(C)C

Response given:
[9.05, 7.19, 9.70, 9.30, 7.80, 7.96, 8.49, 9.30]

Below are some molecules; for each one, tell me its pEC50.
1. CC(/C=C/C(F)=C(/C)c1cc2c(c(Cl)c1OC(C)C)OC(C)(C)C=C2C(C)C)=C\C(=O)O
2. CCOc1c(\C(CC)=C(F)/C=C/C(C)=C/C(=O)O)cc2c(c1Br)C(C)(C)CC=C2C(C)CC (stereo not shown)
3. CCOc1cc2c(cc1\C(C)=C(F)/C=C/C(C)=C/C(=O)O)C(C)=CCC2(C)C

Response given:
[6.28, 8.40, 7.92]

====

Kindly state RXR Trans. efficacy (number in parentheses) γ for each of the entries shown.
Target: UniProtKB P28705
Assay: holoreceptor transactivation assay, RXRγ
Type: cell-based
Conditions: percentage compared to the standard compound
Answers are plain numbers, in %.

Worked cases, RXR Trans. efficacy (number in parentheses) γ given:
compound smiles | unit abbrev | endpoint result
COc1cc2c(cc1\C(C)=C/C=C/C(C)=C/C(=O)O)C(C(C)C)=CC(C)(C)O2 | % | 95
CCOc1cc2c(cc1\C(=C/C=C/C(C)=C/C(=O)O)CC)C(C(C)(C)C)=CCC2(C)C | % | 11

Below are some molecules; for each one, tell me its RXR Trans. efficacy (number in parentheses) γ.
1. CC/C(=C(F)/C=C/C(C)=C/C(=O)O)c1cc2c(c(Cl)c1OC)OC(C)(C)C=C2C(C)C
2. COc1cc2c(cc1\C(C)=C(F)/C=C/C(C)=C/C(=O)O)C(C(C)C)=CC(C)(C)O2

Response given:
1. 95
2. 79
